These data points were gathered from patent US20260250381A1.

Binding Signal (fold over 6E7 parental antibody) reference
Molecular target: T1, human TREM2 (human) (UniProt Q9NZC2)
T1 sequence (looked up): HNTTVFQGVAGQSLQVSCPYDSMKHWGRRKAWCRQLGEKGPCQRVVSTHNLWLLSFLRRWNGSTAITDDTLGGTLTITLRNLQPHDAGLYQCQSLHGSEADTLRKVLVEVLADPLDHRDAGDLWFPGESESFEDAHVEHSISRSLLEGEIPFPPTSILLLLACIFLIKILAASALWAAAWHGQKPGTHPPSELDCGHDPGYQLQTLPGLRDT
Test: 2nd screen, 2 nM Ab
In your response, the unit should come after the numeric value.

Worked set:
Binder	Reported Value
6E7 variant V14 (antibody, V domains shown) VH: EVQLVQSGAEVKKPGESLKISCKGSGYSFGSYWIAWVRQMPGKGLEWMGIIYPGDQDTRYSPSFQGQVTISADKSISTAYLQWSSLKASDTAMYFCARGRTFYYDSSDYFDYWGQGTLVTVSS VL: DIQMTQSPSSVSASVGDRVTITCRASQGISSWLAWYQQKPGKAPKLLIYAASRLQNGVPSRFSGSGSGTDFTLTISSLQPEDFATYFCQQADSFPRTFGQGTKLEIK	2.57 fold
6E7 variant V74 (antibody, V domains shown) VH: EVQLVQSGAEVKKPGESLKISCKGSGYSFASYWIAWVRQMPGKGLEWMGIIYPGDSDVRYSPSFQGQVTISADKSISTAYLQWSSLKASDTAMYFCARGRTFYYDSSDYFDYWGQGTLVTVSS VL: DIQMTQSPSSVSASVGDRVTITCRASQGISSWLAWYQQKPGKAPKLLIYAASSLQLGVPSRFSGSGSGTDFTLTISSLQPEDFATYFCQQADSFPRTFGQGTKLEIK	2.54 fold

# evaluate next
Exam item: What value of measured Binding Signal (fold over 6E7 parental antibody) is listed for 6E7 variant V88 (antibody, V domains shown) VH: EVQLVQSGAEVKKPGESLKISCKGSGYSFGSYWIAWVRQMPGKGLEWMGIIYPGDSDTRYSPSFQGQVTISADKSISTAYLQWSSLKASDTAMYFCARQRTFYYDSSDYFDYWGQGTLVTVSS VL: DIQMTQSPSSVSASVGDRVTITCRASQGISSWLAWYQQKPGKAPKLLIYAASRLQRGVPSRFSGSGSGTDFTLTISSLQPEDFATYFCQQADSSPRTFGQGTKLEIK ?
Marked response: 5.57 fold
